Where these numbers come from: patent US20030236190A1

# target.system: T1, Soluble IGF-1R (R&D Systems, Cat. # 391-GR/CF); recombinant human IGF-1R (human, UniProt P08069 31-935)
# T1 construct: extracellular domain; Eu3+-labelled in the TR-FRET assays; also called sIGF-1R; rhIGF-1R
# assay.text: phage ELISA, vs IR
Outcome label depends on IGF-1R/IR Comparison relative to 10 ratio: at/above gives True, below gives False.

binder="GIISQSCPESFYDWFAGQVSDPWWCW [H2CA-4-G9-IGFR]" answer_label=True
binder="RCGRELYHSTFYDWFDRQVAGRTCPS [H2CA-1-A7-IGFR]" answer_label=False
binder="EGSGFYGYFFSLLGLQG [NNRPy-4-A9-IR]" answer_label=False

Query: Is IGF-1R/IR Comparison at least 10 ratio? Consider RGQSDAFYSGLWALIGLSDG [R20β-4-A6-IR]
Result: True

Query: Is IGF-1R/IR Comparison at least 10 ratio? Consider RFDPFYSYFVNLLGASA [NNRPγ-4-A7-IR]
Result: False

Query: Is IGF-1R/IR Comparison at least 10 ratio? Consider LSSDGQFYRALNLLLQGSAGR [20E2B-2-B7-IGFR]
Result: False

Query: Is IGF-1R/IR Comparison at least 10 ratio? Consider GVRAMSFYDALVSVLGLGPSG [20E2B-1-A6-IGFR]
Result: True

Query: Is IGF-1R/IR Comparison at least 10 ratio? Consider LKDGFYDYFWQRLHLGS [NNRPγ-4-B11-IR]
Result: True

Query: Is IGF-1R/IR Comparison at least 10 ratio? Consider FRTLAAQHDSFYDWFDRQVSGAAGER [H2CA-3-C11-IGFR]
Result: False

Query: Is IGF-1R/IR Comparison at least 10 ratio? Consider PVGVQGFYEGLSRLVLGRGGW [20E22-4-F8-IGFR]
Result: False

Query: Is IGF-1R/IR Comparison at least 10 ratio? Consider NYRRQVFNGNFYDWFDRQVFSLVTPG [142CA-3-D8-IGFR]
Result: False
